Tested on: PGE2 formation in normal human epidermal keratinocytes (NHEK)
assay.protocol: Inhibition of PGE2 formation in irritated keratinocyte cultures (PGE2 immunoassay)
Assay type: cell-based
conditions: Homo sapiens, NHEK; 50 μM compound; irritated with calcimycin 2.5 μM; 24 h; 1% DMSO; read-out: relative inhibition in % of PGE2 formation in keratinocyte cultures at 50 μM
measured.endpoint: inhibition at 50 µM (%)
Just the number in %, nothing appended.

# inhibition at 50 µM lookup, item CC/C=C\CCOC(=O)c1ccccc1O [cis-3-Hexen-1-yl salicylate]
94.8

// next record CC(C)(C)C(=O)OCCc1ccccc1 [CENTIFOLYL ™, phenethyl pivalate]
39

// next record CC=C(C)C(=O)OCc1ccccc1 [TIGLATE BENZYLE, benzyl 2-methylbut-2-enoate]
72.4

// next record N#CC(=C1CCCC1)c1ccccc1
80.8

// next record CC(C)COC(=O)c1ccccc1 [Isobutyl benzoate]
52.5

// next record O=C(OCCc1ccccc1)c1ccccc1O [Phenethyl salicylate]
50.9

// next record CC(=O)OCC=Cc1ccccc1 [Cinnamyl acetate]
47.8

// next record CC=Cc1ccc(OC)cc1
51

// next record CC(C=O)Cc1ccc(C(C)C)cc1 (stereo not drawn)
82

// next record CC(C)(C)c1ccc(CCC=O)cc1
65

// next record CCCCCOC(=O)c1ccccc1O [Amyl salicylate, pentyl 2-hydroxybenzoate]
89.8

// next record O=C(C=Cc1ccccc1)OCC=Cc1ccccc1 [Cinnamyl cinnamate]
64

// next record O=C(OC1CCCCC1)c1ccccc1O [Cyclohexyl salicylate, cyclohexyl 2-hydroxybenzoate]
97.4

// next record O=C(OCCc1ccccc1)c1ccccc1 [Phenethyl benzoate]
92.4

// next record CCCCCCCC1CCCC1=O (stereo not drawn)
92.4

// next record CCC(C)C(=O)OCCc1ccccc1 (stereo not drawn) [ANATOLYL ™, phenethyl 2-methylbutanoate]
50.5

// next record CCCCCCOC(=O)c1ccccc1O [n-Hexyl salicylate]
82.9

// next record COc1ccc(CC2CC2)cc1
56.7

====

What relative inhibition in % of PGE2 formation in keratinocyte cultures at μM was measured for each of the following?
Tested on: PGE2 formation in normal human epidermal keratinocytes (NHEK)
assay.protocol: Inhibition of PGE2 formation in irritated keratinocyte cultures (PGE2 immunoassay)
Type: cell-based
conditions: column head prints only 'μM' (method: 50 μM or 10 μM); calcimycin 2.5 μM; 24 h; 1% DMSO

# relative inhibition in % of PGE2 formation in keratinocyte cultures at μM lookup, item O=C(OCCc1ccccc1)c1ccccc1 [Phenethyl benzoate]
56.9%

// next record O=C(C=Cc1ccccc1)OCCc1ccccc1 [Phenethyl cinnamate]
93.6%

// next record CCCCCCOC(=O)c1ccccc1O [n-Hexyl salicylate]
91.6%

// next record CC=C(C)C(=O)OCc1ccccc1 [TIGLATE BENZYLE, benzyl 2-methylbut-2-enoate]
50.2%

// next record N#CC(=C1CCCC1)c1ccccc1 [2-Cyclopentylidene-2-phenylacetonitrile]
71.1%

// next record CCOc1cc(COC(C)C)ccc1O [PROPYL DIANTILIS, 2-Ethoxy-4-(isopropoxymethyl)phenol]
95.1%

// next record CC(C)COC(=O)c1ccccc1O [Isobutyl salicylate, isobutyl 2-hydroxybenzoate]
73.1%

// next record CCOc1ccc2ccccc2c1 [NEROLINE ™ CRIST, 2-ethoxynaphthalene]
50.2%

// next record CCCCCCCC1CCCC1=O (stereo not shown) [ALISMONE ™, 2-heptylcyclopentanone]
47%

// next record N#CC(=C1CCCCC1)c1ccccc1 [PEONILE ®, 2-cyclohexylidene-2-phenylacetonitrile]
92.4%

// next record CC(C=O)Cc1ccc(C(C)C)cc1 (stereo not shown) [CYCLAMEN ALDEHYDE ™, 2-Methyl-3-(4-isopropylphenyl)propanal]
32%

// next record CCC(CC)=C(C#N)c1ccccc1 [3-Ethyl-2-phenylpent-2-enenitrile]
63.9%

// next record CCOc1cc(COC)ccc1O [METHYL DIANTILIS ®, 2-Ethoxy-4-(methoxymethyl)phenol]
88.2%

// next record O=C(OC1CCCCC1)c1ccccc1O [Cyclohexyl salicylate, cyclohexyl 2-hydroxybenzoate]
76.6%

// next record CC/C=C\CCOC(=O)c1ccccc1O [cis-3-Hexen-1-yl salicylate]
81.4%

// next record CCCCCOC(=O)c1ccccc1O [Amyl salicylate, pentyl 2-hydroxybenzoate]
73.5%
